# Assay Notes: in vivo
# Condition Context: rat, in vivo, iv
Reported Endpoint: RAT IV T1/2 (h)
One number for each entry, in h.

COC(=O)N[C@H](C(=O)N[C@@H](Cc1ccc(C#Cc2ccc(N3CC4CCC(C3)N4C3COC3)nc2)cc1)[C@@H](O)CN(Cc1c(F)cc(-c2ccccn2)cc1F)NC(=O)[C@@H](NC(=O)OC)C(C)(C)C(F)(F)F)C(C)(C)C(F)(F)F; 11.5

Okay, now this compound:
# query: RAT IV T1/2 of entry COC(=O)N[C@H](C(=O)NN(Cc1c(F)cc(-c2ccn(C(F)F)n2)cc1F)C[C@H](O)[C@H](Cc1ccc(C#Cc2cnc(N3CC4CCC(C3)N4C3COC3)nc2)cc1)NC(=O)[C@@H](NC(=O)C1CC1)C(C)(C)C(F)(F)F)C(C)(C)C(F)(F)F 11.5

The origin of these recorded values is patent US10294234B2.
